measuredOn: T1, Histidine-tagged human CD40 protein (hCD40-His) (human, UniProt P25942 21-193)
T1 construct: not shown: histidine tag
assayMethodText: SPR, Biacore T200; antibody on Protein A chip, hCD40-His injected; 1:1 fit
valueKind: pKd
# log scale: pKd equals minus log10 of the concentration in mol/L

Worked cases, answers included:
7F10-H3K1-IgG4 (antibody, V domains shown, Humanized) VH: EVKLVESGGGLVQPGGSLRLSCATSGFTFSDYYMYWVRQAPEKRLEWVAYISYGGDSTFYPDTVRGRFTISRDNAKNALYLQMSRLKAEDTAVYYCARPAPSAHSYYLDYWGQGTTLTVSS VL: DIQMTQSPSSLSASVGDRVTITCRASQDISNYLNWYQQKPGGAVKLLIYYTSRLHSGLPSRFSGSGSGTDFTFTISSLQPEDIATYYCQQGKTLPFTFASGTKLEIK | 6.37
7F10-H2K4-IgG4 (antibody, V domains shown, Humanized) VH: EVQLVESGGGLVQPGGSLRLSCATSGFTFSDYYMYWVRQAPGKRLEWVAYISYGGDSTFYPDTVRGRFTISRDNAKNSLYLQMSSLKAEDTAVYYCARPAPSAHSYYLDYWGQGTLLTVSS VL: DIQMTQSTSSLSASVGDRVTITCRASQDISNYLNWYQQKPDGTVKLLIYYTSRLHSGLPSRFSGSGSGTDYTLTISSLQQEDIATYYCQQGKTLPFTFASGTKLEIK | 6.69
7F10-H3K3-IgG4 (antibody, V domains shown, Humanized) VH: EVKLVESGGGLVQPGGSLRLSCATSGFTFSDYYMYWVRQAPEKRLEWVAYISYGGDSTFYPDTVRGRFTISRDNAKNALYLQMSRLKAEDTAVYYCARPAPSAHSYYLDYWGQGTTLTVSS VL: DIQMTQSTSSLSASVGDRVTITCRASQDISNYLNWYQQKPGGAVKLLIYYTSRLHSGLPSRFSGSGSGTDYTLTISSLQQEDIATYYCQQGKTLPFTFASGTKLEIK | 6.62
4H6-H1K2-IgG4 (antibody, V domains shown, Humanized) VH: QVQLQESGPGLVKPSQTLSLTCTVSGDSVSSGYWNWIRKHPGKKLEWIGFISYSGSTYYTPSLKSRVTISRDTSKNQFSLKLSSVTAADTAVYYCARFRRYDDGVDYWGQGTLVTVSS VL: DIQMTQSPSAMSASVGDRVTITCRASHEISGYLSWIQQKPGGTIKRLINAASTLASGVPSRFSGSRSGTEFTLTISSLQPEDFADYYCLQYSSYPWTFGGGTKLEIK | 6.79

Would you kindly look at the next entry?
Request: Consider the binder shown here: 6A7-H2K3-IgG4 (antibody, V domains shown, Humanized) VH: QVQLVQSGAEVKKPGASVKVSCKASGYTFISYYIYWVRQAPGQGLEWIGGINPRNGGTNFNEKFKSRATLTVDTSISTAYMELSRLRSEDTAVYYCARHGNGVYWGQGTTVTVSS VL: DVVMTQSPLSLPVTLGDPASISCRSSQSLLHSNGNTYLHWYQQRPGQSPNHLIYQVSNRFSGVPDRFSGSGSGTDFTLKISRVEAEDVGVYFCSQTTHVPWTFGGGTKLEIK What is its recorded pKd?
Response: 6.95
